Ref: ChEMBL document CHEMBL4371034

System: Staphylococcus aureus
Experiment Description: Antibacterial activity against Staphylococcus aureus ATCC 29213 assessed as diameter of zone of inhibition at 80 ug/ml after 18 hrs by agar diffusion method
Assay type: functional
Test Parameters: ATCC 29213, 18 h, read-out: DIZ
Property Label: zone of inhibition at 80 µg/mL (mm)
Answers are plain numbers, in mm.

compound="O=C(CCn1ccnn1)NC1CCN(c2c(F)cc3c(=O)c(C(=O)O)cn(C4CC4)c3c2Cl)C1 (stereo unspecified)" experimental_value=7
compound="Nc1ccn(CC(=O)NC2CCN(c3c(F)cc4c(=O)c(C(=O)O)cn(C5CC5)c4c3Cl)C2)n1 (stereo unspecified)" experimental_value=23
compound="NC1CCN(c2c(F)cc3c(=O)c(C(=O)O)cn(C4CC4)c3c2Cl)C1 (stereo unspecified)" experimental_value=22
compound="O=C(Cn1ccnn1)NC1CCN(c2c(F)cc3c(=O)c(C(=O)O)cn(C4CC4)c3c2Cl)C1 (stereo unspecified)" experimental_value=17
compound="Nc1n[nH]c(SCC(=O)NC2CCN(c3c(F)cc4c(=O)c(C(=O)O)cn(C5CC5)c4c3Cl)C2)n1 (stereo unspecified)" experimental_value=16

Record summary for Nc1nnc(SCC(=O)NC2CCN(c3c(F)cc4c(=O)c(C(=O)O)cn(C5CC5)c4c3Cl)C2)s1 (stereo unspecified) : reported zone of inhibition at 80 µg/mL = 12
